assay.system: T1, human plasma Kallikrein (human, UniProt P03952 20-638, limits assumed)
T1 construct: also called hPK; human PK
T1 sequence (P03952 20-638 limits assumed): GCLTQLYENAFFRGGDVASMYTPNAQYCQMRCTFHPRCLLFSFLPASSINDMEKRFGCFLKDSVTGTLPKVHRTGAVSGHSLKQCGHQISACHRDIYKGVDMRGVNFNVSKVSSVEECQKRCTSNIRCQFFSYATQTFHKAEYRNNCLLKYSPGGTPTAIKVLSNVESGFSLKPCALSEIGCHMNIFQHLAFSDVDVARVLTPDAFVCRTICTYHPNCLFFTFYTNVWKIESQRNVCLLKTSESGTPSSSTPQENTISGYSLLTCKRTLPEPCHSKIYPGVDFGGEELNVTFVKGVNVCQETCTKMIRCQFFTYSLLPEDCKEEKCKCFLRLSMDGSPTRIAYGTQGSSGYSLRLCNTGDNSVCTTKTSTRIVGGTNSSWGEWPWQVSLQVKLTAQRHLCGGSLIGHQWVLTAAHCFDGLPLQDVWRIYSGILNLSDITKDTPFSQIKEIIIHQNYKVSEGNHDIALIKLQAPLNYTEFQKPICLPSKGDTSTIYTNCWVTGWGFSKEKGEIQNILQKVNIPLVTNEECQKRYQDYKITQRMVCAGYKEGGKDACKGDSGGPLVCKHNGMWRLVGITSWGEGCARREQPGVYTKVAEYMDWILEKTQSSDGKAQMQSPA
test.details: enzyme inhibition assay
Numbered stars: 1 amine (or outer) side, 2 acyl side, 3 side chain; on linkers, the order of the positions; unused ones are H or OH. Bridge positions count the residues as written; N and C are the ends. Ends that are not written are not given here. TBMB = c1c(C[*:1])cc(C[*:3])cc1C[*:2]
observed.property: Ki (nM)
Write down the numeric answer in nM and omit the unit.

ACNWPYRCLHTDLCA (linker 2-8-14 via TBMB; not fully specified (N-terminus, C-terminus), also called PK110) [06-157]
3.3
ACAWPAKCLTRELCA (linker 2-8-14 via TBMB, also called PK103) [1B1]
8.1
ACTYPYKCLHQNLCA (linker 2-8-14 via TBMB, also called PK112) [2A10]
4.98
ACRWPARCTHQNYCA (linker 2-8-14 via TBMB; not fully specified (N-terminus, C-terminus), also called PK106) [06-54 (2A2)]
0.49

With those in mind, consider the next binder.
Enquiry: For the binder shown here, ACRWPARCLTTSLCA (linker 2-8-14 via TBMB; not fully specified (N-terminus, C-terminus), also called PK102) [06-59] , give the reported Ki.
Return: 0.5
